target: NHE3 (Homo sapiens, UniProt P48764); construct: expressed in transfected cells; experiment: persistent inhibition of NHE3 in the cell-based assay of example 181 (4-chloro vs 4-cyano pairs); conditions: cell-based assay of example 181, persistent
Sequence (P48764 26-834): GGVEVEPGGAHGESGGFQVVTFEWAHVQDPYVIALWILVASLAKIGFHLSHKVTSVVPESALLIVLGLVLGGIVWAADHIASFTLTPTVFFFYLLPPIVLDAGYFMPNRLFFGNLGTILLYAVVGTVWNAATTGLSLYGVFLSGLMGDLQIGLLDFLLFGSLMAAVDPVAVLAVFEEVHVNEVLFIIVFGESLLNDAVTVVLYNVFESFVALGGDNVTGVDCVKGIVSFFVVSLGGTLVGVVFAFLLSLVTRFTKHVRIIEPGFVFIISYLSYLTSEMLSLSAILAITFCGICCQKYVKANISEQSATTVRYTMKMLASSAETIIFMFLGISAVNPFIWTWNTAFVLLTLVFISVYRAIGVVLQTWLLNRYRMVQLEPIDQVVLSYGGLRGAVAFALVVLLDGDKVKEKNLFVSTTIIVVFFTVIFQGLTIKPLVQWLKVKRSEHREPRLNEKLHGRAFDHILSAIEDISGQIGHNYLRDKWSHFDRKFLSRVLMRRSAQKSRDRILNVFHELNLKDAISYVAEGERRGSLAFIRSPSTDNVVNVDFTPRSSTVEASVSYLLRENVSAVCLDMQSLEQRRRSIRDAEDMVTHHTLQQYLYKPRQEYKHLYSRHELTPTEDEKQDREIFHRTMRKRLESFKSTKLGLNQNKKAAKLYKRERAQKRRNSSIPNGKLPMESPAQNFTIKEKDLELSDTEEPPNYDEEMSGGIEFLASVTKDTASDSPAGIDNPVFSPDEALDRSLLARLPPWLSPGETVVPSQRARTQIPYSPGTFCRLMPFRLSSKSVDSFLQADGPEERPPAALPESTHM
Sequence (Q99653 2-195 partner limits assumed): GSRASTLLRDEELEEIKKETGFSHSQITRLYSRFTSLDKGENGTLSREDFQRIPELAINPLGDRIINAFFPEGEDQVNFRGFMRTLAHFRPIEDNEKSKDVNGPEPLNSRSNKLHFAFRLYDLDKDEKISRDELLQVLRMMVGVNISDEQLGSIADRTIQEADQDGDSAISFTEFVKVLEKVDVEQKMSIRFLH
Assign Percent Inhibition to each entry below.

{"Smiles input": "C[C@@H]1CN([C@H]2Cc3c(Cl)cc(Cl)cc3[C@@H]2Oc2ccc(S(=O)(=O)N[C@H]3CCN(CCOCCNC(=O)NCCCCNC(=O)NCCOCCN4CC[C@H](NS(=O)(=O)c5ccc(O[C@H]6c7cc(Cl)cc(Cl)c7C[C@@H]6N6CCN[C@H](C)C6)cc5)C4)C3)cc2)CCN1", "Result": "101%"}

Notebook: `Cc1cc(S(=O)(=O)NCCOCCOCCNC(=O)NCCCCNC(=O)NCCOCCOCCNS(=O)(=O)c2ccc(O[C@H]3c4cc(Cl)cc(Cl)c4C[C@@H]3N3CCNCC3)c(C)c2)ccc1O[C@H]1c2cc(Cl)cc(Cl)c2C[C@@H]1N1CCNCC1` , Percent Inhibition read as 104%

src = patent US11242337B2
